- MEASURED ON: Threonylcarbamoyladenosine tRNA methylthiotransferase (Homo sapiens) (UniProt Q5VV42)
- Sequence (whole entry): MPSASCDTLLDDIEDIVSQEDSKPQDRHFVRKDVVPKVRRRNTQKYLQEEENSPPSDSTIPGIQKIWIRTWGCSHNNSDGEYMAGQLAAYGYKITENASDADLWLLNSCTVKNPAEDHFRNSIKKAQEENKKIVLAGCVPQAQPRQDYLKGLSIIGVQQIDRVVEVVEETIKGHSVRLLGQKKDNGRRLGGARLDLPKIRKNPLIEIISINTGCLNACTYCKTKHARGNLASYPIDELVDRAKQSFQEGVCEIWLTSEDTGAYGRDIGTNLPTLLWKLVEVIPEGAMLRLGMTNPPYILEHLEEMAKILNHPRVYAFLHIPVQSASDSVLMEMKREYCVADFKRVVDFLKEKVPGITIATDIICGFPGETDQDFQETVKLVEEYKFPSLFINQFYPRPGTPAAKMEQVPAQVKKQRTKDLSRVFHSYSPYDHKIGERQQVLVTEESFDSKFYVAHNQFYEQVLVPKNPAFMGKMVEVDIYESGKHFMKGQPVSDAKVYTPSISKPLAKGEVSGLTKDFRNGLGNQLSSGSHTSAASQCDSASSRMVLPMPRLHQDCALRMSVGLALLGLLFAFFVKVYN
- TEST DESCRIPTION: Rescue of mistranslation activity in CDKAL1 (unknown origin) extracted from Escherichia coli harboring MIaB deficient at 10 uM incubated for 1 hr by dual luciferase assay
Threshold check on Ratio: at or above 0.8 gives True, strictly below gives False.

[Q] Does the compound CCC(C)(C)c1ccc(C(=O)C(C)CN2CCCCC2)cc1 (racemic) have recorded Ratio that is 0.8 or more?
[A] True

====

- TEST DESCRIPTION: Drug concentration in Wister rat plasma at 100 mg/kg, po measured after 60 mins
- Assay type: ADME, organism-based
- MEASUREMENT SETUP: Wistar
MEASUREMENT NAME: concentration at 1 h

MOLECULE	concentration at 1 h
CC(CN1CCCCC1)C(=O)c1ccc(C(C)(C)C)cc1.Cl (racemic)	≤ 2000 nM

[Q] Report measured concentration at 1 h; entry is COCCOc1ccc(C(=O)C(C)CN2CCCCC2)cc1.Cl (racemic)
[A] ≤ 2000 nM

====

- MEASURED ON: Threonylcarbamoyladenosine tRNA methylthiotransferase (Homo sapiens) (UniProt Q5VV42)
- TEST DESCRIPTION: Rescue of mistranslation activity in CDKAL1 (unknown origin) extracted from Escherichia coli harboring MIaB deficient at 10 uM incubated for 1 hr by dual luciferase assay
Would you kindly list Ratio for each of these molecules?

Example cases with answers are listed next.
MOLECULE	MEASUREMENT NAME	READOUT VALUE
CCC(CN1CCCCC1)C(=O)c1ccc(C(C)(C)C)cc1 (racemic)	Ratio	0.73
CC(CN1CCCCC1)C(=O)c1ccc(C(C)C)cc1 (racemic)	Ratio	0.78
CC(CN1CCCCC1)C(=O)c1ccc(Cl)cc1 (racemic)	Ratio	0.86
CCc1ccc(C(=O)C(C)CN2CCN(C)CC2)cc1 (racemic)	Ratio	0.7
CCc1ccc(C(=O)C(C)CN2CCCCC2)o1 (racemic)	Ratio	0.99
CC(CN1CCCCC1)C(=O)c1ccc(C(C)(C)C)cc1.Cl (racemic)	Ratio	0.44
CC(C)(C)c1ccc(C(=O)CCN2CCCCC2)cc1	Ratio	0.8
CC(CN1CCCCC1)C(=O)c1ccc(O)cc1 (racemic)	Ratio	0.71
CC(CN1CCCCC1)C(=O)c1ccc(F)cc1 (racemic)	Ratio	1.08
CC(CN1CCCCC1)C(=O)c1ccc(OCCO)cc1 (racemic)	Ratio	0.82

Below are some molecules; for each one, tell me its Ratio.
1. CCc1ccc(C(=O)CCN2CCCCC2)cc1
2. CCc1ccc(C(=O)C(C)CC2CCNCC2)cc1 (racemic)
3. Cc1ccc(C(=O)C(C)CN2CCCCC2)cc1 (racemic)
4. CCc1ccc(C(=O)C(C)CN2CCC(C)CC2)cc1 (racemic)
5. CSCCOc1ccc(C(=O)C(C)CN2CCCCC2)cc1 (racemic)
6. CCc1ccc(C(=O)C(C)CN2CCCC2)cc1 (racemic)
7. CCc1ccc(C(=O)C(C)CN2CCC(OC)CC2)cc1 (racemic)
8. CCc1ccc(C(=O)C(C)CN2CCOCC2)cc1 (racemic)

[A]
1. 0.8
2. 0.75
3. 0.99
4. 0.98
5. 0.96
6. 1.01
7. 1.13
8. 1.29

Below are some molecules; for each one, tell me its Ratio.
1. CC(C)Oc1ccc(C(=O)C(C)CN2CCCCC2)cc1 (racemic)
2. CC(CN1CCCCC1)C(=O)c1ccc(Br)cc1 (racemic)
3. CC(CN1CCCCC1)C(=O)c1ccc(CC(C)(C)C)cc1 (racemic)
4. CC(CN1CCCCC1)C(=O)c1ccc(C(F)(F)F)cc1 (racemic)
5. CCc1ccc(C(=O)C(C)(C)CN2CCCCC2)cc1
6. CC(C)(C)c1ccc(C(=O)C(CN2CCCCC2)C(=O)O)cc1 (racemic)
7. CCCc1ccc(C(=O)C(C)CN2CCCCC2)cc1 (racemic)
8. CCc1ccc(C(=O)C(C)CN2CCC(c3ccccc3)CC2)cc1 (racemic)

[A]
[0.93, 0.84, 1.05, 0.87, 0.66, 1.16, 1.01, 1.01]

====

- TEST DESCRIPTION: Drug concentration in Wister rat plasma at 100 mg/kg, sc measured after 60 mins
- Format: ADME, organism-based
- MEASUREMENT SETUP: Wistar
MEASUREMENT NAME: concentration at 1 h

MOLECULE	concentration at 1 h
COCCOc1ccc(C(=O)C(C)CN2CCCCC2)cc1.Cl (racemic)	> 15 µM

Continue with the molecule presented below.
[Q] Report measured concentration at 1 h; entry is CC(CN1CCCCC1)C(=O)c1ccc(C(C)(C)C)cc1.Cl (racemic)
[A] > 15 µM

====

- MEASURED ON: Threonylcarbamoyladenosine tRNA methylthiotransferase (Homo sapiens)
- TEST DESCRIPTION: Rescue of mistranslation activity in CDKAL1 (unknown origin) extracted from Escherichia coli harboring MIaB deficient at 10 uM incubated for 1 hr by dual luciferase assay
Each record is given Met if its reported Ratio is strictly below 0.8. Records at or above 0.8 are given Not met.

[Q] Threshold test, Ratio < 0.8: COCCOc1ccc(C(=O)C(C)CN2CCCCC2)cc1.Cl (racemic)
[A] Met

[Q] Threshold test, Ratio < 0.8: CCc1cccc(C(=O)C(C)CN2CCCCC2)c1 (racemic)
[A] Not met

[Q] Threshold test, Ratio < 0.8: CCc1ccc(C(=O)C(C)CN2CCCCC2)s1 (racemic)
[A] Met

[Q] Threshold test, Ratio < 0.8: CCc1ccccc1C(=O)C(C)CN1CCCCC1 (racemic)
[A] Not met

[Q] Threshold test, Ratio < 0.8: CC(CN1CCCCC1)C(=O)c1ccc(C2CCCCC2)cc1 (racemic)
[A] Not met

====

- MEASURED ON: Threonylcarbamoyladenosine tRNA methylthiotransferase (Homo sapiens)
- TEST DESCRIPTION: Rescue of mistranslation activity in CDKAL1 (unknown origin) extracted from Escherichia coli harboring MIaB deficient at 10 uM incubated for 1 hr by dual luciferase assay
Threshold check on Ratio: at or above 0.9 gives Met, strictly below gives Not met.

MOLECULE	CLASS
CCOc1ccc(C(=O)C(C)CN2CCCCC2)cc1 (racemic)	Not met
CCc1ccc(C(=O)C(C)CN2CCN(CC)CC2)cc1 (racemic)	Not met
CCCCOc1ccc(C(=O)C(C)CN2CCCCC2)cc1 (racemic)	Not met

Attention now turns to another entry.
[Q] Does the molecule CCc1ccc(C(=O)C(C)CNC2CCCCC2)cc1 (racemic) have recorded Ratio that is 0.9 or more?
[A] Met
